System: OVCAR8
test_summary: drug sensitivity score (DSS2) on cancer cell count; higher = more sensitive; extreme values may be limits of the assay
experimental_parameters: co-cultured fibroblast: BJHTERT; 72 h
measure: drug sensitivity score (DSS)
Reply with just the number (in DSS).

| compound | reading_unit | endpoint_result |
| --- | --- | --- |
| CC[C@H](CC#N)OC(=O)N[C@@H](C)c1cccc(NC(=O)Nc2ccc(-c3cnco3)c(OC)c2)c1 | DSS | 22.4 |
| CCCCCCCCCCCCCCCCOP(=O)([O-])OCC[N+](C)(C)C | DSS | 8.4 |

[Q] Return value of drug sensitivity score for input `CCS(=O)(=O)c1cccc(-c2cc(C(=O)NC3CCN(C)CC3)c(C)c3[nH]c4ncc(C)cc4c23)c1` , no commentary.
[A] 9.4

[Q] Return value of drug sensitivity score for input CC(=O)O[C@]1(C(C)=O)CC[C@H]2[C@@H]3C=C(C)C4=CC(=O)CC[C@]4(C)[C@H]3CC[C@@]21C [Megestrol acetate] , no commentary.
[A] 0

[Q] Return value of drug sensitivity score for input `C[C@@H]1CN(C(=O)c2ccc(NC(=O)c3cc(O[C@H](C)c4c(Cl)ccc(F)c4Cl)c(N)nn3)cc2)C[C@H](C)N1` , no commentary.
[A] 0

[Q] Return value of drug sensitivity score for input `CCS(=O)(=O)N1CC(CC#N)(n2cc(-c3ncnc4[nH]ccc34)cn2)C1` , no commentary.
[A] 0

* * *

Collected drug sensitivity score values appear next to each entry.
Test system: KURAMOCHI
test_summary: drug sensitivity score (DSS2) on cancer cell count; higher = more sensitive; extreme values may be limits of the assay
experimental_parameters: co-cultured fibroblast: WI38; 72 h
Reply with just the number (in DSS).

Here are 5 compounds together with their reported answers.
| compound | drug sensitivity score [DSS] |
| --- | --- |
| Cn1cc(C[C@@H](N)C(=O)O)c2ccccc21 [1-methyl-D-tryptophan] | 0 |
| CNC(=O)[C@@H](NC(=O)[C@H](CC(C)C)[C@H](O)C(=O)NO)C(C)(C)C [Marimastat] | 0 |
| C[C@@H](Oc1ccc2[nH]nc(/C=C/c3cnn(CCO)c3)c2c1)c1c(Cl)cncc1Cl | 2.2 |
| Clc1ccccc1C(c1ccccc1)(c1ccccc1)n1cccn1 [TRAM-34] | 0 |
| N.N.[Cl][Pt][Cl] [Cisplatin] | 6.5 |

Could you now look at the following compound, please?
[Q] Provide measured drug sensitivity score on KURAMOCHI for Cc1cc(OCc2nnc(SC3CCCC3)n2-c2cccnc2)ccc1-c1ccc(S(C)(=O)=O)cc1 [NMS-873] please.
[A] 9

* * *

Test system: OVCAR8
test_summary: drug sensitivity score (DSS2) on cancer cell count; higher = more sensitive; extreme values may be limits of the assay
experimental_parameters: co-cultured fibroblast: WI38; 72 h
measure: drug sensitivity score (DSS)
Reply with just the number (in DSS).

Here are 4 molecules together with their reported answers.
| molecule | reading_unit | endpoint_result |
| --- | --- | --- |
| CCCN(CCC)C(=O)C1=Cc2ccc(-c3ccc(C(=O)N4CCCC4)cc3)cc2N=C(N)C1 | DSS | 0 |
| CC1(C)NC(=O)N(c2ccc([N+](=O)[O-])c(C(F)(F)F)c2)C1=O [Nilutamide] | DSS | 0 |
| Cc1nc(=O)c2cc(CN(C)c3ccc(C(=O)N[C@@H](CCC(=O)O)C(=O)O)s3)ccc2[nH]1 | DSS | 18.3 |
| C[C@@H]1CCN(C(=O)CC#N)C[C@@H]1N(C)c1ncnc2[nH]ccc12 | DSS | 0 |

Could you now look at the following molecule, please?
[Q] Return value of drug sensitivity score for input `CC(C)Oc1ccc(-c2nn([C@@H](C)c3oc4ccc(F)cc4c(=O)c3-c3cccc(F)c3)c3ncnc(N)c23)cc1F` , no commentary.
[A] 0
